Test system: HepG2
protocol.text: GSK_TCMDC: Percent inhibition of human HepG2 cell line. Test compounds present at 10uM.
Format: functional
// map Inhibition onto a label; ranges L = under 5%, M = from 5% up to 40%, H = 40% and over

Request: Category of "Cc1cccc2nc(-c3ccc(-c4cccc(NC(=O)Nc5cccc(C#N)c5)c4)cc3)[nH]c12" :
Result: M

Request: Into which bin does this molecule go? "COC[C@H]1CCCN1Cc1ccc(-c2ccc(-c3nc4ccccc4[nH]3)s2)cc1"
Result: M

Request: Assign a category based on measured Inhibition for CCCCCCCN1CC[C@@H](CCCc2ccnc3ccc(OCC4CCCNC4)cc23)[C@@H](CC)C1.Cl (stereo partly specified) and give only the class name.
Result: H

Request: Could you tell me which band "Cc1[nH]c(C)c(-c2ccc(-c3ccccc3Cl)nc2)c(=O)c1Cl" belongs to?
Result: L

Request: Category lookup for the molecule "N/C(=N\c1cccc(Cc2ccccc2)n1)NCc1ccccc1"
Result: H

Request: Classify this molecule: "CN(C)CCNCc1ccc(-c2ccc(-c3nc4ccccc4[nH]3)s2)cc1.O=C(O)C(F)(F)F"
Result: L

Request: Class? Entry: "c1cn(-c2ccc(CNc3nccc(Nc4ccc(OCCN5CCOCC5)cc4)n3)cc2)cn1"
Result: L

Request: Record "O=C(c1cc(-c2cccs2)n[nH]1)N1CCN(S(=O)(=O)c2ccc(Br)cc2)CC1" — which class?
Result: L

Request: Into which category would you place "CN(CCCNC(=S)NC12CC3CC(CC(C3)C1)C2)CCCNc1ccnc2cc(Cl)ccc12" ?
Result: H

Request: Sort into band: "CN1CCC(C(=O)Nc2cccc(-c3cccc(-c4nc5cc(F)ccc5[nH]4)c3)c2)CC1"
Result: M

Request: Please classify: "CCc1ccc(-n2cc(C(=O)c3cc(Br)ccc3O)cc(C#N)c2=O)cc1"
Result: M

Request: # bin lookup: classify "Cc1cc(N[C@@H](Cc2ccccc2)C(=O)NCc2cccc(F)c2)nc(Nc2ccccc2)n1.O=C(O)C(F)(F)F" by its Inhibition
Result: M

Request: Assign a bin to "Cc1ccc(C2CCN(CCCCNC(=O)c3ccc(-c4ccc(C#N)cc4)cc3)CC2)c(O)c1"
Result: H

Request: Please report the category associated with Cl.O=C(C=Cc1cccc(F)c1)NC1CCC(CCN2CCc3ccc(-c4cnccn4)cc3CC2)CC1 (stereo unspecified) , nothing else.
Result: H

Request: Class? Entry: "Oc1ccc(-c2nc3c4cc(I)ccc4c4ccc(I)cc4c3[nH]2)cc1"
Result: L

Request: Note: place this molecule into its band. Item: COCC(C)n1c(SCC(=O)Nc2cc(C(F)(F)F)ccc2Cl)nc2ccccc2c1=O (stereo unspecified)
Result: L

Request: Sort "CCCCN(CCCC)CCCN(CCCN(CCCC)CCCC)c1cc(C)nc(Nc2ccc(Br)cc2)n1.O=C(O)C(=O)O" into one of the categories.
Result: H

Request: Which bin should I file "Nc1ncc(-c2ccc(F)cc2)cc1-c1nc2ccc(Cl)cc2[nH]1" under?
Result: H

Request: Determine which band this molecule sits in: "C(=Cc1nc2ccccc2s1)c1ccc2c(c1)OCCO2.Cl"
Result: M

Source of measurements: ChEMBL document CHEMBL1157539
